Data provenance is patent US20050112573A1.

Test system: yeast genes (level of expressed mRNA)
Experiment: DNA chip analysis of expressed mRNA of yeast genes after 2 h culture with a toxic chemical substance
Assay type: cell-based, Saccharomyces cerevisiae S288C
Details: gene YGR139W
Measurement name: The level of expressed mRNA in the presence of chemical substance/absence: YGR139W

| Compound | Observed |
| --- | --- |
| C[S+](C)[O-] [(15), dimethylsulfoxide] | 2.3 |
| CCCCC[C@H](O)CC(=O)CCc1ccc(O)c(OC)c1 | 0.4 |
| C=CC=O | 0.9 |
| CCCCCCCCCCCCOS(=O)(=O)[O-].[Na+] [(18), sodium lauryl sulfate] | 0.8 |

====

System: yeast genes (level of expressed mRNA)
Assay: DNA chip analysis of expressed mRNA of yeast genes after 2 h culture with a toxic chemical substance
Format: cell-based, Saccharomyces cerevisiae S288C
Settings: gene YPL150W
Protocol: Yeast (Saccharomyces cerevtisiae S288C (α SUC2mal mel gap2 CUP1)) were cultured at 25° C. on YPD medium (yeast extract 1%, polypepton 2%, glucose 2%). One of toxic chemical substances was added to the cell at logarithmic growth phase, and the cell was further cultured for two hours. Cell was cultured without any chemical substance in the same condition, and was used as control. Concentrations of the chemical substances were defined to inhibit the growth of the yeast but not lead to death. […]
Measurement name: The level of expressed mRNA in the presence of chemical substance/absence: YPL150W

| Compound | Observed |
| --- | --- |
| C[S+](C)[O-] [(15), dimethylsulfoxide] | 1.1 |
| CCCCC[C@H](O)CC(=O)CCc1ccc(O)c(OC)c1 [(13), gingerol] | 2.1 |
| CCCCCCCCCCCCOS(=O)(=O)[O-].[Na+] [(18), sodium lauryl sulfate] | 1.1 |
| COc1cc(CNC(=O)CCCCC=CC(C)C)ccc1O [(12), 8-methyl-N-vanillyl-6-nonenamide] | 1.0 |

====

A collection of compounds and their measured The level of expressed mRNA in the presence of chemical substance/absence: YKL094W
Test system: yeast genes (level of expressed mRNA)
Assay: DNA chip analysis of expressed mRNA of yeast genes after 2 h culture with a toxic chemical substance
Assay type: cell-based, Saccharomyces cerevisiae S288C
Settings: gene YKL094W
Measurement name: The level of expressed mRNA in the presence of chemical substance/absence: YKL094W

| Compound | Observed |
| --- | --- |
| S=C([S-])NCCNC(=S)[S-].[Zn+2] [(11), zinc N,N′-ethylenebis(dithiocarbamate)] | 1.3 |
| CCCCCCCCCCCCOS(=O)(=O)[O-].[Na+] [(18), sodium lauryl sulfate] | 1.9 |
| CCCCC[C@H](O)CC(=O)CCc1ccc(O)c(OC)c1 | 1.7 |
| C=CC=O | 1.3 |
